Each recorded value in this set is attributed to patent US20060069132A1.

# Test system: johnsongrass
# procedure_details: Test C pre-/postemergence herbicide test
# Format: in vivo, Sorghum halepense
# condition_parameters: Postemergence; 250 g ai/ha; scale 0 to 100, 0 no effect, 100 complete control
# Source text: […]
Plant response rating, Johnsongrass listing for selected compounds.

A selection of reference data follows.
C=Cn1nc(C(C)(C)C)cc1C(=O)Nc1cccc(C(C)=NO)c1 [Compound 114] | 70
C#CCNC(=O)c1cccc(NC(=O)c2cc(C(C)(C)C)nn2CC)c1 [Compound 47] | 90
CCNC(=O)c1cc(NC(=O)c2cc(C(C)(C)C)nn2CC)ccc1F [Compound 58] | 5
C#CCn1nc(C(C)(C)C)cc1C(=O)Nc1cccc(C(=O)NCC)c1 [Compound 50] | 0

Enquiry: Form field - read-out: Plant response rating, Johnsongrass; system: johnsongrass; submitted item: CCCCOC(=O)c1cccc(NC(=O)c2cc(C(C)(C)C)nn2CC)c1 [Compound 86]
Return: 10

Enquiry: API: value(readout=Plant response rating, Johnsongrass, system=johnsongrass) for record CCn1nc(C(C)(C)C)cc1C(=O)Nc1cccc(SC(F)(F)F)c1 [Compound 130]
Return: 30

====

Examples of molecules with documented Barnyardgrass plant response rating follow.
# Test system: barnyardgrass
# procedure_details: Test C flooded paddy test
# Assay type: in vivo, Echinochloa crus-galli
# condition_parameters: 62 g ai/ha, scale 0 to 100 (0 no effect, 100 complete control)
Please respond with just the number, no unit label.

Reference set, count: 5
CCOC(=O)c1cc(N(C(C)=O)C(=O)c2cc(C(C)(C)C)nn2CC)ccc1C | 0
CCn1nc(C(C)(C)C)cc1C(=O)Nc1cccc(C(N)=O)n1 | 45
CCn1nc(C(C)(C)C)cc1C(=O)Nc1cc(C(=S)N(C)C)ccc1F | 75
CCOC(=O)c1cc(NC(=O)c2cc(C(C)(C)C)nn2CC)ccc1OC | 45
CCc1nn(C(C)(C)C)nc1C(=S)Nc1cccc(C(=S)N(C)C)c1 | 65

Enquiry: Could you tell me which Barnyardgrass plant response rating is on file for `CCc1nn(C(C)(C)C)cc1C(=O)Nc1cc(C(=O)N(CC)CC)ccc1F` ?
Return: 0

Enquiry: Sample CCOC(=O)c1ccc(F)c(NC(=O)C2CN(C(C)(C)C)N=C2CC)c1 (racemic) — what was its Barnyardgrass plant response rating?
Return: 10

Enquiry: State the recorded Barnyardgrass plant response rating for this entry: `CCn1nc(C(C)(C)C)cc1C(=S)Nc1cc(C(=S)N(C)C)ccc1F`
Return: 70

Enquiry: Could you tell me which Barnyardgrass plant response rating is on file for `CCc1nn(C(C)C)nc1C(=S)Nc1cccc(C(=S)N(C)C)c1` ?
Return: 0

Enquiry: Endpoint output: Barnyardgrass plant response rating of `CCc1nn(C(C)(C)C)cc1C(=O)Nc1cc(C(=O)N(C)C)ccn1` . Value?
Return: 0

Enquiry: Need Barnyardgrass plant response rating of `CCOC(=O)c1cncc(NC(=O)c2cc(C(C)(C)C)nn2CC)c1` , thanks.
Return: 0

Enquiry: Would you mind telling me what Barnyardgrass plant response rating value was observed for `CCNC(=O)c1ccc(F)c(NC(=O)c2c3c(nn2CC)C(C)(C)CC3)c1` ?
Return: 0

Enquiry: Recorded Barnyardgrass plant response rating for `CCn1nc(C(C)(C)C)cc1C(=O)Nc1cccc(OC(F)F)c1` , please?
Return: 5

Enquiry: For the molecule `CCNC(=O)c1cccc(NC(=O)c2nn(C(C)(C)C)nc2C)c1` , what Barnyardgrass plant response rating is on record?
Return: 15

====

# Tested on: pigweed
# procedure_details: Test B pre-/postemergence herbicide test
# Assay type: in vivo, Amaranthus retroflexus
# condition_parameters: 500 g ai/ha; visual rating 0-100, 0 no effect, 100 complete control; preemergence
property_name: Plant response rating, Pigweed
I'd appreciate a reply containing only the number, no unit.

CCn1nc(C(C)(C)C)cc1C(=O)Nc1cccc(SC(F)(F)F)c1 | 100

Enquiry: Any idea what Plant response rating, Pigweed was measured for `CCn1nc(C(C)(C)C)cc1C(=O)Nc1cc(C(=O)NCCOC)ccn1` ?
Return: 100

====

This listing pairs compounds with measured Plant response rating, Ducksalad.
# Test system: ducksalad
# procedure_details: Test C flooded paddy test
# Format: in vivo, Heteranthera limosa
# condition_parameters: 500 g ai/ha, visual rating after 12 to 14 days, scale 0 to 100 (0 no effect, 100 complete control)
// return a plain number; no unit text

In the examples that follow, each entry is paired with its recorded Plant response rating, Ducksalad.
CCc1nn(C(C)(C)C)nc1C(=O)Nc1cccc(C(=O)N(C)CC)c1 | 85
CCn1nc(C(C)(C)C)cc1C(=O)Nc1cccc2c1CCN(C1CC1)C2=O | 40
CCn1nc(C(C)(C)C)cc1C(=O)Nc1cc(C(=O)NCCOC)ccn1 | 90
CCn1nc(C(C)(C)C)cc1C(=O)Nc1cccc(C(N)=O)n1 | 100

With those in mind, consider the next compound.
Enquiry: Can you look up Plant response rating, Ducksalad on ducksalad for `Cc1nn(C(C)(C)C)nc1C(=O)Nc1cccc(C(=O)N2CC=CC2)c1` ?
Return: 90

====

The following molecules are listed with their measured Plant response rating, Ragweed values.
# Test system: common ragweed
# procedure_details: Test C pre-/postemergence herbicide test
# Format: in vivo, Ambrosia elatior
# Parameters: key: 0 = no effect, 100 = complete control
# condition_parameters: 250 g ai/ha; scale 0-100; preemergence

CCn1nc(C2(C)CC2)cc1C(=O)Nc1cc(C(=O)N(C)C)ccc1F | 100
CC(=NO)c1cccc(NC(=O)c2sc(C(C)(C)C)nc2C)c1 | 80

Enquiry: Report Plant response rating, Ragweed for CCC1=NN(C(C)(C)C)CC1C(=O)Nc1cc(C(=O)N(C)C)ccc1F (racemic) please.
Return: 90

Enquiry: Please give the measured Plant response rating, Ragweed for this molecule: `CCn1nc(C(C)(C)C)cc1C(=O)Nc1cc(C(=S)N(C)C)ccn1`
Return: 100

====

# Crabgrass, Large plant response rating per record follows
# System: large crabgrass
# procedure_details: Test A pre-/postemergence herbicide test
# Type: in vivo, Digitaria sanguinalis
# condition_parameters: Preemergence, 500 g ai/ha; visual rating, 0 to 100 scale (0 no effect, 100 complete control)

Observe how each entry below is paired with its result.
CCn1nc(C(C)(C)C)cc1C(=O)Nc1cccc(C(=O)OCC(F)(F)F)c1 | 0
CCOC(=O)c1ccc(F)c(NC(=O)c2cc(C(C)(C)C)nn2CC)c1 | 35
C=CCNC(=O)c1cccc(NC(=O)c2cc(C(C)(C)C)nn2CC)c1 | 65

Enquiry: Data request, read-out Crabgrass, Large plant response rating, for `CCCN1CCc2c(NC(=O)c3cc(C(C)(C)C)nn3CC)cccc2C1=O`
Return: 95

Enquiry: Recorded Crabgrass, Large plant response rating for `CCCOC(=O)c1cccc(NC(=O)c2cc(C(C)(C)C)nn2CC)c1C` , please?
Return: 35

Enquiry: Look at this molecule and give its reported Crabgrass, Large plant response rating. CCC(C)c1cc(C(=O)Nc2cccc(C(C)=NO)c2)n(C)n1 (stereo not shown)
Return: 45

Enquiry: Crabgrass, Large plant response rating lookup needed for `CCn1nc(C(C)(C)C)cc1C(=O)Nc1cccc(SC(F)(F)F)c1` , thanks.
Return: 45

Enquiry: Dear colleague, I am looking for the recorded Crabgrass, Large plant response rating of the following molecule: `C=Cn1nc(C(C)(C)C)cc1C(=O)Nc1cccc(C(=O)NCC)c1`
Return: 90

Enquiry: State the recorded Crabgrass, Large plant response rating for this entry: `C=Cn1nc(C(C)(C)C)cc1C(=O)Nc1cccc(C(C)=NO)c1`
Return: 40

Enquiry: May I ask what Crabgrass, Large plant response rating has been recorded for `CC(=NO)c1cccc(NC(=O)c2cc(C(C)(C)C)nn2C(C)C)c1` ?
Return: 20

====

# Tested on: bermudagrass
# procedure_details: Test C pre-/postemergence herbicide test
# Type: in vivo, Cynodon dactylon
# condition_parameters: Postemergence; 250 g ai/ha; scale 0 to 100, 0 no effect, 100 complete control
property_name: Plant response rating, Bermudagrass
Lab note: write the figure by itself, no unit.

These solved cases illustrate the format of a correct answer.
CC(=NO)c1cccc(NC(=O)c2cc(C(C)(C)C)nn2CCF)c1 | 60
CCCCOC(=O)c1cccc(NC(=O)c2cc(C(C)(C)C)nn2CC)c1 | 30
CCn1nc(C(C)(C)C)cc1C(=O)Nc1cccc(SC(F)(F)F)c1 | 90

Next:
Enquiry: # get_value(readout='Plant response rating, Bermudagrass', item= `C=Cn1nc(C(C)(C)C)cc1C(=O)Nc1cccc(C(C)=NO)c1` )
Return: 90

====

# Test system: giant foxtail
# procedure_details: Test A pre-/postemergence herbicide test
# Type: in vivo, Setaria faberi
# condition_parameters: Preemergence, 2000 g ai/ha; visual rating, 0 to 100 scale (0 no effect, 100 complete control)
# Foxtail, Giant plant response rating annotations
Could you keep your reply to the number by itself?

Look over these answered cases.
C#CCOC(=O)c1cccc(NC(=O)c2cc(C(C)(C)C)nn2C)n1 [Compound 317] | 0
CCn1nc(C(C)(C)C)cc1C(=O)Nc1cccc(C(=O)OC(C)(C)C)c1 [Compound 98] | 0
CCn1nc(C(C)(C)C)cc1C(=O)Nc1nc(OC)cc(OC)n1 [Compound 166] | 10
CCn1nc(C(C)(C)C)cc1C(=O)Nc1cccc(SC(F)(F)F)c1 [Compound 130] | 55
CCCCNS(=O)(=O)c1cccc(NC(=O)c2cc(C(C)(C)C)nn2C)c1 [Compound 125] | 0
CC(=NO)c1cccc(NC(=O)c2cc(C(C)(C)C)nn2CCF)c1 [Compound 115] | 80
CC(=NO)c1cc(NC(=O)c2cc(C(C)(C)C)nn2C)ccc1F [Compound 109] | 90
CCC(C)c1cc(C(=O)Nc2cccc(C(C)=NO)c2)n(C)n1 (stereo not shown) [Compound 120] | 55

Enquiry: If you can, please state the reported Foxtail, Giant plant response rating value of C=Cn1nc(C(C)(C)C)cc1C(=O)Nc1cccc(C(C)=O)c1 [Compound 127] .
Return: 35

Enquiry: What does the record list as Foxtail, Giant plant response rating for CCc1nn(C(C)(C)C)cc1C(=O)Nc1cc(C(=O)N(CC)CC)ccc1F [Compound 223] ?
Return: 90

Enquiry: For CCn1nc(C(C)(C)C)cc1C(=O)Nc1cc(C(=O)N(C)C)c(F)cc1F [Compound 270] , what is its reported Foxtail, Giant plant response rating?
Return: 70

Enquiry: Name the recorded Foxtail, Giant plant response rating for CCc1nc(C(C)(C)C)sc1C(=O)Nc1cccc(C(=O)NCC(C)C)c1 [Compound 211] .
Return: 70

Enquiry: Return reported Foxtail, Giant plant response rating; argument: Cn1nc(C(C)(C)C)cc1C(=O)Nc1cccc2c1CCC2=NO [Compound 111]
Return: 75
